test_method_notes: Experimental log D
Assay type: physicochemical
So I've got a bunch of molecules here, and I need their logD values.
Give bare numbers.

C[C@@H]1CC[C@@H](Oc2cc(C#N)ccn2)CN1C(=O)c1cc(F)ccc1-c1ncccn1 2.54

For Cc1c(C#N)ccnc1O[C@@H]1CC[C@@H](C)N(C(=O)c2cc(F)ccc2-c2nccs2)C1 the molecule record lists logD as 3.43

###

Test system: OX2R
test_method_notes: OX2R binding affinity
condition_details: OX2R over OX1R

molecule	selectivity over OX1R
C[C@@H]1CC[C@@H](Oc2cc(C#N)ccn2)CN1C(=O)c1cc(F)ccc1-c1ncccn1 [compound 2]	exceeded 600 fold
Cc1c(C#N)ccnc1O[C@@H]1CC[C@@H](C)N(C(=O)c2cc([18F])ccc2-c2nccs2)C1 [[^18F]1]	> 600 fold
CC1CCC(Oc2cc(C#N)ccn2)CN1C(=O)c1cc([18F])ccc1-c1ncccn1 (stereo not shown) [[^18F]2]	> 600 fold
Cc1c(C#N)ccnc1O[C@@H]1CC[C@@H](C)N(C(=O)c2cc(F)ccc2-c2nccs2)C1 [compound 1]	exceeded 600 fold

###

experimental_system: NR2B receptors (Homo sapiens, UniProt Q05586+Q13224)
Sequence (Q13224 27-1484, other chains not shown): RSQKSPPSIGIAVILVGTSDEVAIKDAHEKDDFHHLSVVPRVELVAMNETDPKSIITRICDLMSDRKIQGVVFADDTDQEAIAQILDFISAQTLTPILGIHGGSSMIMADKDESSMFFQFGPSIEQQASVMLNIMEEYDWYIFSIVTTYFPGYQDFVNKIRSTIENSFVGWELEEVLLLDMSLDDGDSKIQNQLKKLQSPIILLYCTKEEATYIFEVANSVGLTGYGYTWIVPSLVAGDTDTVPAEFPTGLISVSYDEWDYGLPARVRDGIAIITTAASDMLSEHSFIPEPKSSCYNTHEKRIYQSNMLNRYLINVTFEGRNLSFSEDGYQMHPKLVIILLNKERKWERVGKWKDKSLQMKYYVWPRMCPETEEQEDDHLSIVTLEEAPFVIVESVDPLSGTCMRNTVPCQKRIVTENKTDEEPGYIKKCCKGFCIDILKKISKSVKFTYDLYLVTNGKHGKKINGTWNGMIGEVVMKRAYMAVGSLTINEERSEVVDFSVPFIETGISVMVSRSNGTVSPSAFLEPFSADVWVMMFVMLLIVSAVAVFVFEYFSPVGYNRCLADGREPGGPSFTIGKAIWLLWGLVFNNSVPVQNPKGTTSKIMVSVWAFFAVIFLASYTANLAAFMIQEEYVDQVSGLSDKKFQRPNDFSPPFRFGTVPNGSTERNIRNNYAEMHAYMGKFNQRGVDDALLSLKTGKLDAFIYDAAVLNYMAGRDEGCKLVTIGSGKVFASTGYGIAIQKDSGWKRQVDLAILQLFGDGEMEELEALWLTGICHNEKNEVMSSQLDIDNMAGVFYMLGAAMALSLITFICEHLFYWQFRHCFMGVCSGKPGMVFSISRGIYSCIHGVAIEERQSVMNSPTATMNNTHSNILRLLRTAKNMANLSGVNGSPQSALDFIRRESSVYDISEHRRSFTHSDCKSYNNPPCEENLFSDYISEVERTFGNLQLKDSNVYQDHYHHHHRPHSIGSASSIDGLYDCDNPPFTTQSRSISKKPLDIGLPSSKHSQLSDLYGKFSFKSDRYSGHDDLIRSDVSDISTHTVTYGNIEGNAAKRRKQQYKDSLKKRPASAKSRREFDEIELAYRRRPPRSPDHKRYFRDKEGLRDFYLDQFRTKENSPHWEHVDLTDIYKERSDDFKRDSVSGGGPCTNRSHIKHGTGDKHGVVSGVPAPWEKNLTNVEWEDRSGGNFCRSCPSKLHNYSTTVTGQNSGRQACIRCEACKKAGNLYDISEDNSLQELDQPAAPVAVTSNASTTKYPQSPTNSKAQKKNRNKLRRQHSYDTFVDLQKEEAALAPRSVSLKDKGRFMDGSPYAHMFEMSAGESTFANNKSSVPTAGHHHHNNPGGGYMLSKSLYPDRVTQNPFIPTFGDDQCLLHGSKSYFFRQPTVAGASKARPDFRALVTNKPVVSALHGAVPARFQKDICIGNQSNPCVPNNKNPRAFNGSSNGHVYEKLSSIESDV
test_method_notes: Off-target binding, NR2B
condition_details: read-out: K i NR2B
Experimental: Target selectivity over OX1R exceeded 600-fold for both compounds, satisfying a key prerequisite for selective OX2R imaging. […] CNS penetration was further predicted using Percepta, yielding log BB values of −0.14 and −0.36 for compounds 1 and 2, respectively, well above the empirical threshold for BBB permeability (log BB > −1). Additionally, off-target binding screening was conducted for compounds 1 and 2 toward 59 major CNS targets (Figures S1 and S2). 1. Supporting Figures and Tables Figure S1. […]
measurement_name: Ki (µM)
One number for each entry, in µM.

For Cc1c(C#N)ccnc1O[C@@H]1CC[C@@H](C)N(C(=O)c2cc(F)ccc2-c2nccs2)C1 the compound record lists Ki as 9.48

These entries and their values trace back to paper PMC12624432.
